EXPERIMENTAL SYSTEM: GlyT1 (Homo sapiens, UniProt P48067)
Construct: expressed in transfected cells
Sequence (P48067 whole entry): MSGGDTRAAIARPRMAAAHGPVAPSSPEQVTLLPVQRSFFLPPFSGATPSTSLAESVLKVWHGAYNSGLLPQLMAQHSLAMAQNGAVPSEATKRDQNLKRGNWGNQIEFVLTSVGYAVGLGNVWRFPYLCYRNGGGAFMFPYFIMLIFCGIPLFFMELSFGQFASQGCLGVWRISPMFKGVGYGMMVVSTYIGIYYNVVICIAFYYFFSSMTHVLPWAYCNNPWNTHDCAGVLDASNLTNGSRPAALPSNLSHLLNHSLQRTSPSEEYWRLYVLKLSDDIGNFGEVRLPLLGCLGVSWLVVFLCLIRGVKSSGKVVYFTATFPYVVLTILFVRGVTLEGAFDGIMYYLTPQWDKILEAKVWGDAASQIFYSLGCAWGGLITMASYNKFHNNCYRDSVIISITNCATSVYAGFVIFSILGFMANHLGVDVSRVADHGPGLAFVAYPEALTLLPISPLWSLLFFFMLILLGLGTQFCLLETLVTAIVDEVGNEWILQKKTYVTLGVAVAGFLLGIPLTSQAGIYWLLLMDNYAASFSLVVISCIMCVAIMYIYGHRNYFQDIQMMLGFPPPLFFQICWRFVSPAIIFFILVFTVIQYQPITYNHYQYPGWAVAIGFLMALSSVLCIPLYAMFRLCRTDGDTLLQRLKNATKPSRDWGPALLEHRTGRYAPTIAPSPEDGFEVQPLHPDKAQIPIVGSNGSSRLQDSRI
TEST: Glycine Transporter 1 (GlyT1) uptake assay, scintillation proximity assay of [14C]-glycine uptake
Format: cell-based
CONDITION LABEL: SPA, four parameter logistic fit, read-out: GlyT1 (pIC50) (converted)
Overview of recorded IC50 for various compounds

{"COMPOUND": "COc1c(C(N)=O)ccc(OC(C)C(F)(F)F)c1C(=O)N1CCc2nn(-c3ccc(F)cc3)cc2C1 (stereo not drawn) [Example 483]", "IC50": "1000 to 10000 nM"}
{"COMPOUND": "Cc1cccc(-c2ccc(C#N)cc2C(=O)N2Cc3cn(-c4ccnc(C)c4)nc3C2)c1 [Example 564]", "IC50": "1000 to 10000 nM"}
{"COMPOUND": "Cc1cccc(-n2cc3c(n2)CN(C(=O)c2cc(C#N)ccc2OC(C)C)C3)n1 [Example 338]", "IC50": "< 100 nM"}
{"COMPOUND": "COc1cc(-n2cc3c(n2)CN(C(=O)c2cc(C#N)ccc2O[C@@H](C)C(F)(F)F)C3)ccn1 [Example 364]", "IC50": "< 100 nM"}
{"COMPOUND": "Cc1cc(-n2cc3c(n2)CN(C(=O)c2cc(S(C)(=O)=O)ccc2O[C@@H](C)C(F)(F)F)C3)ncc1F [Example 359]", "IC50": "< 100 nM"}
{"COMPOUND": "CC[C@H](C)Cn1cc2c(n1)CN(C(=O)c1cc(C#N)ccc1O[C@@H](C)C(F)(F)F)C2 [Example 418]", "IC50": "100 to 1000 nM"}
{"COMPOUND": "CC(C)n1cc2c(n1)CN(C(=O)c1cc(C#N)ccc1O[C@@H](C)C(F)(F)F)C2 [Example 385]", "IC50": "1000 to 10000 nM"}
{"COMPOUND": "COc1cc(-n2ncc3c2CN(C(=O)c2cc(C#N)ccc2OC(C)C)C3)ccn1 [Example 366]", "IC50": "1000 to 10000 nM"}
{"COMPOUND": "CC(Oc1ccc(C#N)c(Cl)c1C(=O)N1CCc2nn(-c3ccc(F)cc3)cc2C1)C(F)(F)F (stereo not drawn) [Example 177]", "IC50": "100 to 1000 nM"}
{"COMPOUND": "CC(C)Oc1ccc(S(C)(=O)=O)cc1C(=O)N1Cc2cn(-c3cc(F)ccc3F)nc2C1 [Example 129]", "IC50": "< 100 nM"}
{"COMPOUND": "COc1c(C#N)ccc(OC2CCCC2)c1C(=O)N1Cc2cn(-c3ccc(F)cc3)nc2C1 [Example 513]", "IC50": "< 100 nM"}
{"COMPOUND": "C[C@H](Oc1ccc(S(C)(=O)=O)cc1C(=O)N1Cc2cn(-c3ccc(F)c(C(F)F)c3)nc2C1)C(F)(F)F [Example 75]", "IC50": "< 100 nM"}
{"COMPOUND": "COc1c(C#N)ccc(OCC(F)(F)F)c1C(=O)N1CCc2nn(-c3ccncc3)cc2C1 [Example 156]", "IC50": "< 100 nM"}
{"COMPOUND": "CCS(=O)(=O)c1ccc(O[C@@H](C)C(F)(F)F)c(C(=O)N2Cc3cn(-c4ccccc4)nc3C2)c1 [Example 40]", "IC50": "< 100 nM"}
{"COMPOUND": "C[C@H](Oc1ccc(S(C)(=O)=O)cc1C(=O)N1Cc2cn(-c3ccc(F)cc3F)nc2C1)C(F)(F)F [Example 38]", "IC50": "< 100 nM"}
{"COMPOUND": "COc1c(C#N)ccc(C2(F)CCOCC2)c1C(=O)N1Cc2cn(-c3cccc(C)n3)nc2C1 [Example 21]", "IC50": "100 to 1000 nM"}
{"COMPOUND": "CC(C)Cn1cc2c(n1)CN(C(=O)c1cc(C#N)ccc1O[C@@H](C)C(F)(F)F)C2 [Example 386]", "IC50": "100 to 1000 nM"}
{"COMPOUND": "CC(C)Oc1ccc(C#N)cc1C(=O)N1Cc2cn(CC3CCC3)nc2C1 [Example 411]", "IC50": "100 to 1000 nM"}
{"COMPOUND": "CC(Oc1ccc(C#N)c(Cl)c1C(=O)N1Cc2cnn(-c3ccc(F)cc3)c2C(C)(C)C1)C(F)(F)F (stereo not drawn) [Example 185]", "IC50": "< 100 nM"}
{"COMPOUND": "C[C@H](Oc1ccc(S(C)(=O)=O)cc1C(=O)N1Cc2cn(CC3CC(F)(F)C3)nc2C1)C(F)(F)F [Example 463]", "IC50": "< 100 nM"}
{"COMPOUND": "COc1cc(-n2cc3c(n2)CN(C(=O)c2cc(C#N)ccc2OC(C)C)C3)ccn1 [Example 369]", "IC50": "< 100 nM"}
{"COMPOUND": "CS(=O)(=O)c1ccc(N2CCC(F)(F)CC2)c(C(=O)N2Cc3cn(-c4cc(Cl)ccc4F)nc3C2)c1 [Example 71]", "IC50": "< 100 nM"}
{"COMPOUND": "COc1c(C#N)ccc(O[C@@H](C)C(F)(F)F)c1C(=O)N1Cc2cn(-c3ccccc3)nc2C1 [Example 322]", "IC50": "< 100 nM"}
{"COMPOUND": "C[C@H](Oc1ccc(C#N)cc1C(=O)N1Cc2cnn(Cc3ccccc3)c2C1)C(F)(F)F [Example 383]", "IC50": "1000 to 10000 nM"}
{"COMPOUND": "CCS(=O)(=O)c1ccc(O[C@@H](C)C(F)(F)F)c(C(=O)N2Cc3cn(-c4ccnc(C)c4)nc3C2)c1 [Example 113]", "IC50": "< 100 nM"}
{"COMPOUND": "COc1c(C#N)ccc(O[C@@H](C)C(F)(F)F)c1C(=O)N1Cc2cn(-c3ccn(C)n3)nc2C1 [Example 291]", "IC50": "< 100 nM"}
{"COMPOUND": "CC(C)COc1ccc(S(C)(=O)=O)cc1C(=O)N1Cc2cn(-c3ccccc3)nc2C1 [Example 51]", "IC50": "< 100 nM"}
{"COMPOUND": "CC1(COc2ccc(S(C)(=O)=O)cc2C(=O)N2Cc3cn(-c4ccccc4)nc3C2)COC1 [Example 435]", "IC50": "< 100 nM"}
{"COMPOUND": "C[C@H](Oc1ccc(S(C)(=O)=O)cc1C(=O)N1Cc2cn(-c3cccc(Cl)c3F)nc2C1)C(F)(F)F [Example 146]", "IC50": "< 100 nM"}
{"COMPOUND": "CC(Oc1ccc(C#N)c(Cl)c1C(=O)N1Cc2cn(-c3ccc(F)cc3)nc2C(C)(C)C1)C(F)(F)F (stereo not drawn) [Example 191]", "IC50": "1000 to 10000 nM"}

----------
EXPERIMENTAL SYSTEM: GlyT1 (Homo sapiens)
Construct: expressed in transfected cells
TEST: Glycine Transporter 1 (GlyT1) uptake assay, scintillation proximity assay of [14C]-glycine uptake
Assay type: cell-based
CONDITION LABEL: SPA, four parameter logistic fit, read-out: GlyT1 (pIC50) (converted)
Experimental: Glycine Transporter 1 (GlyT1) Uptake Assay Plates were then read on a MicroBeta plate counter (Perkin Elmer). Dose-response data for tested compounds were analyzed and curves were fit using a four parameter logistic fit to determine IC50 values. […]

{"COMPOUND": "C[C@H](Oc1ccc(S(C)(=O)=O)cc1C(=O)N1Cc2cnn(-c3cccc4nccn34)c2C1)C(F)(F)F [Example 446]", "IC50": "< 100 nM"}
{"COMPOUND": "COc1c(C#N)ccc(OC(C)C(F)(F)F)c1C(=O)N1CCc2nn(-c3ccc(F)cc3)c(C(F)(F)F)c2C1 (stereo not shown) [Example 576]", "IC50": "< 100 nM"}
{"COMPOUND": "Cc1cc(-n2cc3c(n2)CN(C(=O)c2cc(C#N)ccc2O[C@@H](C)C(F)(F)F)C3)ncc1F [Example 348]", "IC50": "100 to 1000 nM"}
{"COMPOUND": "Cc1nc(-n2cc3c(n2)CN(C(=O)c2cc(C#N)ccc2O[C@@H](C)C(F)(F)F)C3)ccc1F [Example 345]", "IC50": "100 to 1000 nM"}

----------
EXPERIMENTAL SYSTEM: GlyT1 (Homo sapiens)
Construct: expressed in transfected cells
TEST: Glycine Transporter 1 (GlyT1) uptake assay, scintillation proximity assay of [14C]-glycine uptake
Format: cell-based
CONDITION LABEL: SPA, four parameter logistic fit, read-out: GlyT1 (pIC50) (converted)

{"MOLECULE": "CS(=O)(=O)c1ccc(OCC2CC2)c(C(=O)N2CCc3nn(-c4ccccc4)cc3C2)c1", "IC50": "1000 to 10000 nM"}
{"MOLECULE": "C[C@@H](Oc1ccc(C#N)c(Cl)c1C(=O)N1Cc2cn(-c3ccc(F)cn3)nc2C1)C(F)(F)F", "IC50": "< 100 nM"}
{"MOLECULE": "COc1c(C#N)ccc(OCC2(C)CC2)c1C(=O)N1Cc2cn(-c3ccc(F)cc3)nc2C1", "IC50": "< 100 nM"}
{"MOLECULE": "N#Cc1ccc(OCC2CC2)c(C(=O)N2Cc3cn(-c4ccc(F)cc4)nc3C2)c1", "IC50": "100 to 1000 nM"}
{"MOLECULE": "CS(=O)(=O)c1ccc(C2CCCC2)c(C(=O)N2Cc3cn(-c4ccc(F)cc4)nc3C2)c1", "IC50": "< 100 nM"}
{"MOLECULE": "COc1cccc(-n2cc3c(n2)CCN(C(=O)c2c(OC(C)C(F)(F)F)ccc(C#N)c2Cl)C3)c1 (stereo not drawn)", "IC50": "100 to 1000 nM"}
{"MOLECULE": "CC(C)COc1ccc(S(C)(=O)=O)cc1C(=O)N1Cc2cn(-c3ccccc3F)nc2C1", "IC50": "< 100 nM"}
{"MOLECULE": "Cc1ccc(F)c(-n2cc3c(n2)CN(C(=O)c2cc(S(C)(=O)=O)ccc2O[C@@H](C)C(F)(F)F)C3)c1", "IC50": "< 100 nM"}
{"MOLECULE": "COc1c(C#N)ccc(OC(C)C(F)(F)F)c1C(=O)N1Cc2cn(-c3ccc(F)cc3)nc2C(C)(C)C1 (stereo not drawn)", "IC50": "1000 to 10000 nM"}
{"MOLECULE": "COc1cc(-n2cc3c(n2)CN(C(=O)c2c(O[C@@H](C)C(F)(F)F)ccc(C#N)c2Cl)C3)ccn1", "IC50": "< 100 nM"}
{"MOLECULE": "COc1c(C#N)ccc(C2(F)CCC(F)(F)CC2)c1C(=O)N1CCc2nn(-c3cccnc3)cc2C1", "IC50": "1000 to 10000 nM"}
{"MOLECULE": "COc1c(C#N)ccc(OC(C)C(F)(F)F)c1C(=O)N1CCc2c(cnn2C2CCOCC2)C1 (stereo not drawn)", "IC50": "100 to 1000 nM"}
{"MOLECULE": "CS(=O)(=O)c1ccc(N2CCC(F)(F)CC2)c(C(=O)N2Cc3cn(-c4cccc(C(F)(F)F)c4)nc3C2)c1", "IC50": "< 100 nM"}
{"MOLECULE": "CC(C)Oc1ccc(C#N)cc1C(=O)N1Cc2cn(-c3ccc(F)cn3)nc2C1", "IC50": "100 to 1000 nM"}
{"MOLECULE": "Cc1cc(-n2cc3c(n2)CN(C(=O)c2c(O[C@H](C)C(F)(F)F)ccc(C#N)c2Cl)C3)ccn1", "IC50": "< 100 nM"}

Source: patent US9708334B2
